tested on: Trypanosoma brucei rhodesiense; assay: Antitrypanosomal activity against bloodstream Trypanosoma brucei rhodesiense STIB 900 after 70 hrs by alamar blue assay; format: functional, organism-based; settings: STIB 900, 70 h
Below: a set of entries, each annotated with reported log10 IC50.
ASSAY_READOUT: log10 IC50 (log10 of the value in nM)

# COMPOUND_SMILES, TARGET_OR_TEST_SYSTEM, log10 IC50
measured = [
    ("CC1=CC(C)(C)N(Cc2ccccc2)c2ccccc21", "Trypanosoma brucei rhodesiense", 4.76),
    ("CC(=O)Oc1ccc2c(c1)C(C)=CC(C)(C)N2Cc1ccc(Cl)cc1", "Trypanosoma brucei rhodesiense", 2.26),
    ("CC1=CC(C)(C)N(Cc2ccccc2)c2ccc(OC(=O)c3ccccc3)cc21", "Trypanosoma brucei rhodesiense", 1.11),
    ("CC(=O)Oc1ccc2c(c1)C(C)=CC(C)(C)N2Cc1cccc(C#N)c1", "Trypanosoma brucei rhodesiense", 2.26),
    ("CC1=CC(C)(C)N(Cc2ccncc2)c2ccc(O)cc21", "Trypanosoma brucei rhodesiense", 2.53),
    ("CC(=O)Oc1ccc2c(c1)C(C)=CC(C)(C)N2Cc1ccc(C)cc1", "Trypanosoma brucei rhodesiense", 2.59),
    ("COc1ccc(COc2ccc3c(c2)C(C)=CC(C)(C)N3)cc1", "Trypanosoma brucei rhodesiense", 3.72),
    ("CC(=O)Oc1ccc2c(c1)C(C)=CC(C)(C)N2Cc1ccc(Cl)c(Cl)c1", "Trypanosoma brucei rhodesiense", 1.72),
    ("COc1cc(CN2c3ccc(O)cc3C(C)=CC2(C)C)cc(OC)c1", "Trypanosoma brucei rhodesiense", 2.15),
    ("O=C(Oc1ccc2ncccc2c1)c1ccc2c(c1)OCO2", "Trypanosoma brucei rhodesiense", 4.90),
    ("CC1=CC(C)(C)Nc2ccc(OCCc3ccccc3)cc21", "Trypanosoma brucei rhodesiense", 3.57),
]

meta.source: ChEMBL document CHEMBL1154763
